Data provenance: ChEMBL document CHEMBL5331098

species on record: Rattus norvegicus; experiment: Inhibition of rat intestinal maltase assessed as D-glucose release using maltose as substrate at pH 6.8 at 1000 uM by colorimetric method relative to control
Reported inhibition maps to class as: A: < 20%; B: ≥ 20% and < 30%; C: ≥ 30%

Category lookup for the molecule Cl.OC[C@H]1N[C@H]([C@H](O)CCCCCCc2ccc(F)cc2)[C@@H](O)[C@@H]1O B

For CC(C)(C)c1ccc(CCCCCC[C@@H](O)[C@H]2N[C@H](CO)[C@@H](O)[C@@H]2O)cc1.Cl then? C

Same thing, different molecule: Cl.OC[C@H]1N[C@H]([C@@H](O)CCCCCCc2ccc(Cl)cc2)[C@@H](O)[C@@H]1O A

Same question, Cc1ccc(CCCCCCC[C@H]2N[C@H](CO)[C@@H](O)[C@@H]2O)cc1.Cl this time C

Try this molecule next: Cl.OC[C@H]1N[C@H](CCCCCCCc2ccc(F)cc2)[C@@H](O)[C@@H]1O A

Same read-out for CC(C)(C)c1ccc(CCCCCC[C@H](O)[C@H]2N[C@H](CO)[C@@H](O)[C@@H]2O)cc1 ? A

Try this molecule next: Cl.OC[C@H]1N[C@H](CCCCCCCc2cccc(F)c2)[C@@H](O)[C@@H]1O C

Do the same for OC[C@H]1N[C@H](CCCCCCCc2ccccc2)[C@@H](O)[C@H]1O please C

// repeat for OC[C@H]1N[C@H]([C@@H](O)CCCCCCc2ccccc2)[C@@H](O)[C@@H]1O and report A

Request: Cc1ccc(CCCCCC[C@@H](O)[C@H]2N[C@H](CO)[C@@H](O)[C@@H]2O)cc1 A

Param item: OC[C@H]1N[C@H]([C@@H](O)CCCCCCc2ccc(F)c(F)c2)[C@@H](O)[C@@H]1O A

And OC[C@H]1N[C@H](CCCCCCCc2ccc(F)c(F)c2F)[C@@H](O)[C@@H]1O ? B

How about this molecule: Cl.OC[C@H]1N[C@H]([C@H](O)CCCCCCc2ccc(F)c(F)c2)[C@@H](O)[C@@H]1O C

Moving on to the next molecule: OC[C@H]1N[C@H]([C@@H](O)CCCCCCc2ccc(F)cc2)[C@@H](O)[C@@H]1O B

Also OC[C@H]1N[C@H]([C@H](O)CCCCCCc2ccc(Cl)cc2)[C@@H](O)[C@@H]1O , if possible. A
